# Assay system: Amyloid-beta precursor protein (Homo sapiens, UniProt P05067)
# Sequence (P05067 whole entry, the tested form may be a part): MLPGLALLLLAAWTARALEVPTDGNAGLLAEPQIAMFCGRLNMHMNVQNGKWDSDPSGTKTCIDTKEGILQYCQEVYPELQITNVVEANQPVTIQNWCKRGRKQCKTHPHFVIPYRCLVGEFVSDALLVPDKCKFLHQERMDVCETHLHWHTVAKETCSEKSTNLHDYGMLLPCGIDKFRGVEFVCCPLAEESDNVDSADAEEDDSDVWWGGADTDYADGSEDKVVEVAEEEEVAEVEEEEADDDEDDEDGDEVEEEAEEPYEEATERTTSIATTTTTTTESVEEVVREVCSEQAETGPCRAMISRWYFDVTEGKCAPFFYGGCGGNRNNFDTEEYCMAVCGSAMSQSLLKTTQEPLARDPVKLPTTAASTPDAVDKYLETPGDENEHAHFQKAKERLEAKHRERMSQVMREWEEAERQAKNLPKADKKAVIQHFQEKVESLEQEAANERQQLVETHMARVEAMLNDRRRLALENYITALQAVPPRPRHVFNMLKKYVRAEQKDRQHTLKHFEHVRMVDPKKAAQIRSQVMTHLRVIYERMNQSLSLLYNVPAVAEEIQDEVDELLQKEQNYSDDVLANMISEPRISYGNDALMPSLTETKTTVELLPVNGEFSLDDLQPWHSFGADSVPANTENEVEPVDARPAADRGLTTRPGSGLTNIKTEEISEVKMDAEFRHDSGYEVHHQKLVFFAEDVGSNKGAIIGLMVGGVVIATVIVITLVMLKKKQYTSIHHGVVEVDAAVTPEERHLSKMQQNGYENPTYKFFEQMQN
# Protocol text: Inhibition of HFIP-induced human recombinant amyloid beta (1 to 42 residues) aggregation expressed in Escherichia coli at 25 uM measured over 24 hrs by ThT-based fluorescence spectroscopic method relative to control
Quick reference: inhibition of the listed items.

{"Molecule smiles": "CNc1nc(NCCc2ccc(OC)c(OC)c2)c2ccccc2n1", "Assay system": "Amyloid-beta precursor protein (Homo sapiens, UniProt P05067)", "Relation qualifier": "=", "inhibition [%]": 23.1}
{"Molecule smiles": "CCCNc1nc(NCCc2ccc(OC)c(OC)c2)c2ccccc2n1", "Assay system": "Amyloid-beta precursor protein (Homo sapiens, UniProt P05067)", "Relation qualifier": "=", "inhibition [%]": 14}
{"Molecule smiles": "CC(C)Nc1nc(NCc2ccccc2)c2ccccc2n1", "Assay system": "Amyloid-beta precursor protein (Homo sapiens, UniProt P05067)", "Relation qualifier": "=", "inhibition [%]": 13}
{"Molecule smiles": "Nc1nc(NCc2ccccc2)c2ccccc2n1", "Assay system": "Amyloid-beta precursor protein (Homo sapiens, UniProt P05067)", "Relation qualifier": "<", "inhibition [%]": 10}
{"Molecule smiles": "CCNc1nc(NCCc2ccccc2)c2ccccc2n1", "Assay system": "Amyloid-beta precursor protein (Homo sapiens, UniProt P05067)", "Relation qualifier": "=", "inhibition [%]": 47}
{"Molecule smiles": "c1ccc(CCNc2nc(NC3CC3)nc3ccccc23)cc1", "Assay system": "Amyloid-beta precursor protein (Homo sapiens, UniProt P05067)", "Relation qualifier": "=", "inhibition [%]": 22}

Origin of the recorded values: ChEMBL document CHEMBL4002588
